Please go through the items and note down their % inhibition T4 130' 5.
Molecular target: bacteriophage T4 DNA polymerase (Enterobacteria phage T4, UniProt P04415)
Construct: made in house
Sequence (P04415 1-898): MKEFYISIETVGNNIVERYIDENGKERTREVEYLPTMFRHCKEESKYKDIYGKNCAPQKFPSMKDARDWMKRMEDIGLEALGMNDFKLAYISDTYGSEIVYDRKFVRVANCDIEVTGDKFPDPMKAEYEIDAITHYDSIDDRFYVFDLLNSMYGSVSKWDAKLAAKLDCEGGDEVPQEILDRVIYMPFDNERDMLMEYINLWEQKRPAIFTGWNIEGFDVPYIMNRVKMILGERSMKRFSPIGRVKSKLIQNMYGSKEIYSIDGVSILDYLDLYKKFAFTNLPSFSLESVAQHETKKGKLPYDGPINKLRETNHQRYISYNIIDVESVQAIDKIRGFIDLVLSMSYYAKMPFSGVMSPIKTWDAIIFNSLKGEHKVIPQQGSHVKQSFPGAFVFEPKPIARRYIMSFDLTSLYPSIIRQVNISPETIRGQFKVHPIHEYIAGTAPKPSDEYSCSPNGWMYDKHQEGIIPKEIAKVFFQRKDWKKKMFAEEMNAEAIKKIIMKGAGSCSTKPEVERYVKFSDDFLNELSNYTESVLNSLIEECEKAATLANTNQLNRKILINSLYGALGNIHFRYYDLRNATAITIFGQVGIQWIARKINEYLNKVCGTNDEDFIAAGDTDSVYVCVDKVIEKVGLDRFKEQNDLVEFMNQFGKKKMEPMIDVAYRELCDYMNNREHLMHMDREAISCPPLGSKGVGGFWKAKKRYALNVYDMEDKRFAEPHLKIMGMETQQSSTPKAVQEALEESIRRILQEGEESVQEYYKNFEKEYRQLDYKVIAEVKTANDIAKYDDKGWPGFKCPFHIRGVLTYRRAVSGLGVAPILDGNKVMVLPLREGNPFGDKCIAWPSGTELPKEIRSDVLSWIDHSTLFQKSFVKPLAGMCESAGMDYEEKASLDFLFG
Experiment: Counter-screen against bacteriophage T4 DNA polymerase
Type: biochemical
Conditions: DRC-1; read at 130'; concentration 5
# output: bare number, implied unit %

Problem: Missing value: % inhibition T4 130' 5, bacteriophage T4 DNA polymerase (Enterobacteria phage T4, UniProt P04415), entry C#CC(C=CC)OC(=O)c1ccccc1C(=O)O (centres unmarked) [Molecule 61, CC=CC(OC(=O)c1ccccc1C(=O)O)C#C] . Fill in?
Solution: 2.079

Problem: And for Cn1nc(-c2nc(-c3ccccc3)no2)c2c1CCN(C(=O)Cc1cccs1)C2 [Molecule 58] ?
Solution: -0.486

Problem: And for CC(=O)Nc1cc(C(=O)c2cccs2)nn(-c2ccc(Cl)cc2)c1=O [KU0267905] ?
Solution: -4.349

Problem: And for CC(=O)OCC1=C(C(=O)[O-])N2C(=O)[C@@H](NC(=O)Cc3cccs3)[C@H]2SC1.[Na+] [Molecule 73] ?
Solution: 7.499

Problem: And for O=C(CCc1csc(NC(=O)Nc2ccccc2)n1)Nc1nc2ccccc2s1 [KU0177354] ?
Solution: 3.945

Problem: And for CCCc1ccc(Oc2coc3cc(OC)ccc3c2=O)cc1 [KU0193249] ?
Solution: -1.759

Problem: And for Cc1ccsc1Cn1c(C)ccc1C [Molecule 70, Cc1ccsc1Cn1c(C)ccc1C] ?
Solution: -4.557

Problem: And for CC(C)CC(C(=O)O)N1C(=O)C2C3C=CC(C2C1=O)C1C(=O)N(C(CC(C)C)C(=O)O)C(=O)C31 (centres unmarked) [KU0193449] ?
Solution: -1.909
